tested.system: 5-hydroxytryptamine receptor 2B (Homo sapiens); also: assay procedure not described here
Sequence (P41595 whole entry): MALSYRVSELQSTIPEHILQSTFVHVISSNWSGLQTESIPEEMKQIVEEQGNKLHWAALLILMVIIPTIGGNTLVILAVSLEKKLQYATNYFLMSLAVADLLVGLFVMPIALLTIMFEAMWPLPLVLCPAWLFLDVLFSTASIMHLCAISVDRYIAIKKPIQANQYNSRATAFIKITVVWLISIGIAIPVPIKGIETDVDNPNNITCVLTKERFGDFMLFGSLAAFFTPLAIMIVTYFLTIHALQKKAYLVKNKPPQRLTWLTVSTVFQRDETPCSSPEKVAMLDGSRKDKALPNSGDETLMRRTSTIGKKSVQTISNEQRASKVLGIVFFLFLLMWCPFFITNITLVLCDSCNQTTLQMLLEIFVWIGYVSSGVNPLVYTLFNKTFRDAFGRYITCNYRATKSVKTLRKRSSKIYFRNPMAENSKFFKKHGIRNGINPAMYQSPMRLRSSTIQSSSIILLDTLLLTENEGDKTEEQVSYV
Type: functional, cell-based
attribute.measured: AC50

- compound: "CCOC(=O)[C@H](CCc1ccccc1)N[C@@H](C)C(=O)N1Cc2ccccc2C[C@H]1C(=O)O"
  value.observed: "> 30 µM"
- compound: "CCCCC(=O)O[C@H]1CC[C@H]2[C@@H]3CCc4cc(O)ccc4[C@H]3CC[C@]12C [ESTRADIOL VALERATE]"
  value.observed: "> 30 µM"
- compound: "CC(C)(Oc1ccc(Cl)cc1)C(=O)NC(=O)NCN1CCOCC1 [PLAFIBRIDE]"
  value.observed: "> 30 µM"
- compound: "NCC1(CC(=O)O)CCCCC1"
  value.observed: "> 30 µM"
- compound: "CC1(C)C[C@@H]1C(=O)N/C(=C\\CCCCSC[C@H](N)C(=O)O)C(=O)O"
  value.observed: "> 30 µM"
- compound: "CCCCCCCC/C=C\\CCCCCCCC(=O)O"
  value.observed: "> 30 µM"

Consider the following items and state reported AC50 for each.
1. CN1CCN(C(c2ccccc2)c2ccc(Cl)cc2)CC1 (centres undefined)
2. Cn1c(CCCC(=O)O)nc2cc(N(CCCl)CCCl)ccc21
3. Cc1ccc2c([nH]c(=O)c3c(=O)cc(C(=O)OCCC(C)C)oc32)c1C

> 30 µM
> 30 µM
> 10 µM

----------
I'd be grateful if you could share measured AC50 for these entries.
tested.system: Alpha-1A adrenergic receptor (Homo sapiens, UniProt P35348); also: assay procedure not described here
Sequence (P35348 whole entry): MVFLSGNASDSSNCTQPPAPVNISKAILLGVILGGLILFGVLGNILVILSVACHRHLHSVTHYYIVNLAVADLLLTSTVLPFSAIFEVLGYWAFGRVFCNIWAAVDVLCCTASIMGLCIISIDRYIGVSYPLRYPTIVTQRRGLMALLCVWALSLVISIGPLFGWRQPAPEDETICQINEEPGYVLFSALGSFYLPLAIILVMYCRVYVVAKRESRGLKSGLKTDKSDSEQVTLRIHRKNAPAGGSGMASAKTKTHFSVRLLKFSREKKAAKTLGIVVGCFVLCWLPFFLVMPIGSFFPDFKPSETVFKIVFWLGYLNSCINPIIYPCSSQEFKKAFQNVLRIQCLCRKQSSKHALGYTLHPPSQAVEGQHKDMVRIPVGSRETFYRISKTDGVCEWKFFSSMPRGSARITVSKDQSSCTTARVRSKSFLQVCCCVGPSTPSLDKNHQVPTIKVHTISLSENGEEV
Type: functional, cell-based

- compound: "c1cnc2cc3c(cc2n1)[C@@H]1CNC[C@H]3C1"
  tested.system: "Alpha-1A adrenergic receptor (Homo sapiens, UniProt P35348)"
  AC50: "> 30 µM"

Consider the following items and state reported AC50 for each.
1. C[C@H](CCC(=O)O)[C@H]1CC[C@H]2[C@@H]3[C@H](O)C[C@@H]4C[C@H](O)CC[C@]4(C)[C@H]3CC[C@]12C
2. Clc1ccc(COC(Cn2ccnc2)c2ccc(Cl)cc2Cl)c(Cl)c1 (centres undefined)
3. Nc1nnc(-c2cccc(Cl)c2Cl)c(N)n1
4. COc1ccc2c3c1O[C@H]1C(=O)CC[C@H]4[C@@H](C2)N(C)CC[C@]314 [HYDROCODONE]

1. 19 µM
2. > 30 µM
3. > 30 µM
4. > 30 µM

Consider the following items and state reported AC50 for each.
1. CC1Cc2ccccc2N1NC(=O)c1ccc(Cl)c(S(N)(=O)=O)c1 (centres undefined) [INDAPAMIDE]
2. CNCCc1ccccn1
3. CC(=O)Oc1cccc2c1C(=O)c1c(OC(C)=O)cc(C(=O)O)cc1C2=O
4. COc1ccc(-n2nc(C(N)=O)c3c2C(=O)N(c2ccc(N4CCCCC4=O)cc2)CC3)cc1

> 30 µM
> 30 µM
13 µM
> 30 µM
